- ASSAY SYSTEM: human CD28 antigen (human, UniProt P10747 19-152)
- MEASUREMENT DESCRIPTION: Octet; VHVL
PROPERTY MEASURED: Kd

[[record]]
binder = "H1.1_L1.71 (antibody, V domains shown) VH: EVQLLESGGGLVQPGGSLRLSCAASGFTFPSRDMSWVRQAPGKRLEWVSTISSGGSFTHYPDSVKGRFTISRDNSKNTLYLQMNSLRAEDTAVYYCVRRSGDWYFDVWGAGTTVTVSS VL: EIVLTQSPGTLSLSPGERATLSCRVSSSIQSTNLHWYQQKPGQSPRPLIYGTSTLATGVPVRFSGSGSGTDYTLTISRLEPEDFAVYYCQQWSSYPLYTFGGGTKVEIK"
endpoint_value = "96 nM"

[[record]]
binder = "H1_L1.71 (antibody, V domains shown) VH: EVQLLESGGGLVQPGGSLRLSCAASGFTFSSYDMSWVRQAPGKRLEWVSTISSGGSFTHYPDSVKGRFTISRDNSKNTLYLQMNSLRAEDTAVYYCVRRSGDWYFDVWGAGTTVTVSS VL: EIVLTQSPGTLSLSPGERATLSCRVSSSIQSTNLHWYQQKPGQSPRPLIYGTSTLATGVPVRFSGSGSGTDYTLTISRLEPEDFAVYYCQQWSSYPLYTFGGGTKVEIK"
endpoint_value = "180 nM"

[[record]]
binder = "H1L1 (antibody, V domains shown) VH: EVQLLESGGGLVQPGGSLRLSCAASGFTFSSYDMSWVRQAPGKRLEWVSTISSGGSFTHYPDSVKGRFTISRDNSKNTLYLQMNSLRAEDTAVYYCVRRSGDWYFDVWGAGTTVTVSS VL: EIVLTQSPGTLSLSPGERATLSCRVSSSISSSNLHWYQQKPGQSPRPLIYGTSNLASGVPVRFSGSGSGTDYTLTISRLEPEDFAVYYCQQWSSYPLYTFGGGTKVEIK"
endpoint_value = "1000 nM"

